Where these numbers come from: PubChem BioAssay (NCI)

experiment: NCI Yeast Anticancer Drug Screen. Data for the cln2 rad14 strain (AID 165);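 further: 0% = growth equal to vehicle treated cultures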; conditions: S. cerevisiae cln2 rad14 strain, at 50.0 µM, hits give high values
The panel holds about 79,000 compounds, 15% with a hit somewhere; the sample as a whole holds those more often.
Attribute: growth inhibition
Metric: growth inhibition (%)

Compound | Metric | Observed Value
CCCCCCCCCCC(C(=O)OCCCC)P(=O)(OCCCC)OCCCC (stereo not given) | growth inhibition | 81.2
ClC(Cl)(Cl)C(NCCN1CCOCC1)c1ccccc1 (stereo not given) | growth inhibition | 78.8
O=C1C(Cl)=C(Nc2ccc(S(=O)(=O)O)cc2)C(=O)c2ccccc21 | growth inhibition | 99.3
NC(=S)SCCC(=O)O | growth inhibition | 40.1
COc1ccc2c(c1)CCc1c(-c3noc4c3CCc3cc(OC)ccc3-4)noc1-2 | growth inhibition | 53.5
NC(=O)C1C(=O)c2cccc3c2C1(Br)C(Br)CCC3 (stereo not given) | growth inhibition | 98.8
CC(C)C(Cl)CC/C(CBr)=C(\Cl)CCl (stereo not given) | growth inhibition | 91.1
O=C(O)C(O)Cc1ccc(O)cc1 (stereo not given) | growth inhibition | 39.2
COc1cc(C/C=C/c2ccccc2)c(OC)cc1O | growth inhibition | 76
Clc1ccccc1C(Cc1c(Cl)cccc1Cl)Cn1ccnc1 (stereo not given) | growth inhibition | 98.8
